Biological target: full-length human RORγt (Homo sapiens (Human), UniProt P51449)
Sequence (P51449 other isoform, or with tags, fused parts or gaps): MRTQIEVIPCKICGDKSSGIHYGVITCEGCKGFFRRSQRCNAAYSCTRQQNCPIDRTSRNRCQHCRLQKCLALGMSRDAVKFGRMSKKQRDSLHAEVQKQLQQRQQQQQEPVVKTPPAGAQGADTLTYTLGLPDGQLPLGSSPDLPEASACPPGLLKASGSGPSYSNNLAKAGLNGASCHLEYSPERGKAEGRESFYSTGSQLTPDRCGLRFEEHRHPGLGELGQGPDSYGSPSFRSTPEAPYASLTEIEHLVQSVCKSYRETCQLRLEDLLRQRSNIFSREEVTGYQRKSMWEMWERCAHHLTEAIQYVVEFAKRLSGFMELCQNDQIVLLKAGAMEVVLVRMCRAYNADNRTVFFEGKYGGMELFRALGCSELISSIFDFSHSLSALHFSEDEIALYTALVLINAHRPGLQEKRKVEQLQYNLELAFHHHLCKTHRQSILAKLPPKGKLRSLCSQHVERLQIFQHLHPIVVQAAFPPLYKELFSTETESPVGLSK
Experiment: RORγt (full-length human) reporter assay, conditions A or B, HEK293T cells
Type: cell-based
Details: HEK-293T; 0.33 μM compound concentration (footnote *****); read-out: RORγt (FL) Reporter Assay A or B, % inhibition
PROPERTY_LABEL: inhibition at […] (%)

[
  {
    "COMPOUND": "CCn1nc(C(=O)NC[C@H]2CC[C@H](S(N)(=O)=O)CC2)c(C)c1-c1ccc(C[C@H](C)C(F)(F)F)cc1OC(F)F (single isomer, unassigned) [Example 59]",
    "REPORTED_RESULT": 93
  },
  {
    "COMPOUND": "C[C@H](Cc1ccc(-c2c(Cl)c(C(=O)NC[C@]3(O)CC[C@@H](S(C)(=O)=O)CC3)nn2C)c(OC(F)F)c1)C(F)(F)F (single isomer, unassigned) [Example 152]",
    "REPORTED_RESULT": 72
  },
  {
    "COMPOUND": "CCn1nc(C(=O)NC[C@H]2CC[C@H](S(N)(=O)=O)CC2)c(Cl)c1-c1ccc(C[C@H](C)C(F)(F)F)cc1OC(F)F (single isomer, unassigned) [Example 54]",
    "REPORTED_RESULT": 102
  },
  {
    "COMPOUND": "CCn1nc(C(=O)NC[C@]2(O)CC[C@@H](S(C)(=O)=O)CC2)c(Cl)c1-c1ccc(CC(C)(C)CC(F)(F)F)cc1OC(F)F [Example 90]",
    "REPORTED_RESULT": 91
  },
  {
    "COMPOUND": "CCn1nc(C(=O)NC[C@]2(O)CC[C@@H](S(C)(=O)=O)CC2)c(Cl)c1-c1ccc(C[C@@H](C)C(F)(F)F)cc1OC(F)F (single isomer, unassigned) [Example 136]",
    "REPORTED_RESULT": 89
  }
]
